Biological target: HIV-1 Env of isolate MGRM-C-017 (subtype C) (HIV-1)
Assay: cell-based or functional assay
Property Label: IC50 (µg/mL), pseudovirus neutralization
Numeric answer only, unit µg/mL assumed.

Given the entry PGT-125 (antibody, V domains shown) VH: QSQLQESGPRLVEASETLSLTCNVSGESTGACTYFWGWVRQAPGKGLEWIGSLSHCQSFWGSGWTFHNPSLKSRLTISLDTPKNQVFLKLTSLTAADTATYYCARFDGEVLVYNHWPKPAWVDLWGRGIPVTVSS VL: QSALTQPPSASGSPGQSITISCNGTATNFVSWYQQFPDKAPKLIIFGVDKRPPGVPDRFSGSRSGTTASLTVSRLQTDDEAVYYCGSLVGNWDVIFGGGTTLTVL , report its measured IC50 (µg/mL), pseudovirus neutralization.
2.36

Given the entry PGT-123 (antibody, V domains shown) VH: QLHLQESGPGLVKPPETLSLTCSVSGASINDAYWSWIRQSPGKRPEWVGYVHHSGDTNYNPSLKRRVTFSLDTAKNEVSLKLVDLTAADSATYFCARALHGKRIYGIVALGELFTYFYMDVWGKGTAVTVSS VL: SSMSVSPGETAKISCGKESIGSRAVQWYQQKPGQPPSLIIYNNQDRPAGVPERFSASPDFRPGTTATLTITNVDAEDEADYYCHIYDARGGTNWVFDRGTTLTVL , report its measured IC50 (µg/mL), pseudovirus neutralization.
0.01

Given the entry PGT-127 (antibody, V domains shown) VH: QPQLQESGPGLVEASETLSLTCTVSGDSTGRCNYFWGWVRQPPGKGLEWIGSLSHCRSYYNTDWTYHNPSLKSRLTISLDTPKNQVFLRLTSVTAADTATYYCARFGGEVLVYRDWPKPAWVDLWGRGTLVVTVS VL: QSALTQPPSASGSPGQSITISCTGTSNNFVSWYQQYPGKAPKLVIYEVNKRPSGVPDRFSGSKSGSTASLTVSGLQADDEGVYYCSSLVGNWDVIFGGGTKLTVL , report its measured IC50 (µg/mL), pseudovirus neutralization.
3.4

Given the entry PGT-126 (antibody, V domains shown) VH: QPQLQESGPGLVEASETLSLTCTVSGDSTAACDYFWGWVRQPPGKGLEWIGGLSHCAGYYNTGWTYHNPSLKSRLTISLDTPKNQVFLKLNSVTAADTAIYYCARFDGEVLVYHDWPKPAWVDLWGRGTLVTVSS VL: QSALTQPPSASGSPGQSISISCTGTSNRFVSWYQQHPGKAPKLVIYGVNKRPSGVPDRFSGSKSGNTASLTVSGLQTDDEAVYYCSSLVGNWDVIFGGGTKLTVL , report its measured IC50 (µg/mL), pseudovirus neutralization.
0.17

Every entry's value here was drawn from patent US20240132578A1.
